Test: Microsomal stability assay, human liver microsomes
Assay type: in vitro ADME
Settings: pH 7.4; human liver microsomes, 1 μM compound, NADPH, without Cobicistat; read-out: HLM half-life (t1/2)
QUANTITY MEASURED: half-life at 1 μM (min)
Report the value in min with no unit label.

| COMPOUND | half-life at 1 μM [min] |
| --- | --- |
| Cc1ccc(N(C)C(=O)[C@H](Cc2ccccc2)NC(=O)CN2C(=O)NC3(CCCCC3)C2=O)cc1 [drawing 187] | 3.3 |

Enquiry: Using the record for COc1ccc(N(C)C(=O)[C@H](Cc2ccccc2)NC(=O)CN2C(=O)NC3(CCCCC3)C2=O)cc1 [drawing 186] , report its half-life at 1 μM.
Return: 5.2

Enquiry: Using the record for Cc1cccc2c1NC(=O)C2CC(=O)N[C@@H](Cc1ccccc1)C(=O)N(C)c1ccccc1 (some centres unmarked) [drawing 177] , report its half-life at 1 μM.
Return: 7

Enquiry: Using the record for CN(C(=O)[C@H](Cc1ccccc1)NC(=O)Cc1ccc2ccccc2c1)c1ccccc1 [drawing 181] , report its half-life at 1 μM.
Return: 1.8

Enquiry: Using the record for Cc1ccc(C)c2c1NC(=O)C2CC(=O)N[C@@H](Cc1ccccc1)C(=O)N(C)c1cccc(Cl)c1 (some centres unmarked) [drawing 180] , report its half-life at 1 μM.
Return: 6.7

Enquiry: Using the record for Cc1ccc(C)c2c1NC(=O)C2CC(=O)N[C@@H](Cc1ccccc1)C(=O)N(C)c1ccccc1 (some centres unmarked) [drawing 179] , report its half-life at 1 μM.
Return: 1.5

Enquiry: Using the record for CN(C(=O)[C@H](Cc1ccccc1)NC(=O)Cc1ccc2ccccc2c1)c1ccc(Cl)cc1 [drawing 182] , report its half-life at 1 μM.
Return: 2.7

Enquiry: Using the record for CN(C(=O)[C@H](Cc1ccccc1)NC(=O)CN1C(=O)NC2(CCCCC2)C1=O)c1ccc(F)cc1 [drawing 188] , report its half-life at 1 μM.
Return: 1.1

---

Assay: Cytotoxicity in TZM-GFP cells (XTT)
Assay type: cell-based
Settings: human, 72 hours exposure, XTT
Item-by-item account of CC50 at 72 h

Here are 5 compounds together with their reported answers.
| COMPOUND | CC50 at 72 h |
| --- | --- |
| Cc1ccc(C)c2c1NC(=O)C2CC(=O)N[C@@H](Cc1ccccc1)C(=O)N(C)c1ccc(Cl)cc1 (stereo partly shown) | 63 µM |
| Cc1ccc(C)c2c1NC(=O)C2CC(=O)N[C@@H](Cc1ccccc1)C(=O)N(C)c1cccc(F)c1 (stereo partly shown) | 60 µM |
| CN(C(=O)[C@H](Cc1ccccc1)NC(=O)CN1C(=O)NC2(CCCCC2)C1=O)c1cccc(Br)c1 | > 50 µM |
| O=C(Cn1c(=O)[nH]c2ccccc2c1=O)N[C@@H](Cc1ccccc1)C(=O)N1CCC[C@H]1C(=O)Nc1ccccc1 | > 100 µM |
| CN(C(=O)[C@H](Cc1ccccc1)NC(=O)CN1C(=O)NC2(CCCCC2)C1=O)c1ccc(Cl)cc1 | > 100 µM |

Enquiry: Using the record for `CN(C(=O)[C@H](Cc1ccccc1)NC(=O)Cc1ccc2ccccc2c1)c1cccc(Cl)c1` , report its CC50 at 72 h.
Return: < 50 µM

Enquiry: Using the record for `CN(C(=O)[C@H](Cc1ccccc1)NC(=O)Cn1c(=O)[nH]c2ccccc2c1=O)c1ccccc1` , report its CC50 at 72 h.
Return: > 100 µM
